# study-target: human MCH-1R (Homo sapiens)
# Sequence (Q99705 whole entry): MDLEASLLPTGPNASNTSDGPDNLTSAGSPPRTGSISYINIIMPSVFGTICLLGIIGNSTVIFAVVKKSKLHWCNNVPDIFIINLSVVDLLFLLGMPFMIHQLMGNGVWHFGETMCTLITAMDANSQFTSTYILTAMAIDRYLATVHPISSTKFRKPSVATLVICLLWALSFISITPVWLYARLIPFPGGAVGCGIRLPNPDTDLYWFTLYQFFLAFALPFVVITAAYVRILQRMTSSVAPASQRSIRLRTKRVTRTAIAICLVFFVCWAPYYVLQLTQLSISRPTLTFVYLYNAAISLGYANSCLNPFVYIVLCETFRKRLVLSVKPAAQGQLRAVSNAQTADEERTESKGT
pIC50: −log10 of the molar value.
value-kind: pIC50

smiles_record=CCO/N=C(\c1ccc(F)c(F)c1)c1ccc(CN2CCC(c3ccn4ccnc4c3)CC2)cn1 value_kind=pIC50 reported_measurement=9.57

I = CS(=O)(=O)CO/N=C(\c1ccc(F)c(F)c1)c1ccc(CN2CCC(c3ccc(F)nc3)CC2)cn1
II = CC(C)(O)CO/N=C(\c1ccc(F)c(F)c1)c1ccc(CN2CCC(c3cnn4ncccc34)CC2)cn1
Query :: For I and II , which recorded pIC50 is lower? Reply with the label of the item you choose.
Result :: II

The measured values listed here are drawn from patent US20100324049A1.
